target: Calmodulin-1 (Homo sapiens); experiment: Inhibition of recombinant calmodulin mediated bovine brain PDE1 activation assessed as effect on inorganic phosphate release by spectrophotometry
Known pIC50 of a selection of compounds
Interpret pIC50 as the negative base-10 log of the concentration measured in mol/L.

COMPOUND	pIC50
C=C(C)[C@H]1COc2c(C)cc3oc4c(C[C@H](Cl)C(C)(C)O)ccc(O)c4c(=O)c3c2[C@@H]1O	5.02
C=C(C)[C@H]1COc2c(C)cc3oc4c(C[C@H](O)C(C)(C)O)ccc(O)c4c(=O)c3c2[C@@H]1O [TAJIXANTHONE HYDRATE]	5.25
C=C(C)[C@H]1COc2c(C)cc3oc4c([C@H](OC)[C@@H]5OC5(C)C)ccc(O)c4c(=O)c3c2[C@@H]1O	5.26

# evaluate next
## Input Recorded pIC50 for `C=C(C)[C@H]1COc2c(C)cc3oc4c(CC=C(C)C)ccc(O)c4c(=O)c3c2[C@@H]1O` , please?
## Output 4.54
